System: thromboxane A2 synthesis (thromboxane A2 synthetase)
procedure_details: Inhibition of Thromboxane A2 Synthesis (collagen-stimulated rabbit platelet-rich plasma, thromboxane B2 by radioimmunoassay)
Type: cell-based
recorded_conditions: Oryctolagus cuniculus, 5 min, read-out: IC50 on Thromboxane A2 Synthesis
measured_endpoint: IC50 (µM)

                                   molecule  numeric_value
0  Cl.O=C(O)c1ccc(OCCn2ccnc2)cc1 [Compound B, hydrochloride, reference compound]            5.7

---

The entries below are paired with their reported LD50 at 168 h.
procedure_details: Acute Toxicity
Assay type: in vivo
recorded_conditions: mouse, in vivo, ip; ddY male mice; i.p.; mortality one week after administration; Behrens-Karber method
measured_endpoint: LD50 at 168 h (mg/kg)

>>> print(df.to_string())
                                   compound  units_symbol  numeric_value
0  CC(=Cc1ccc(Oc2cccnc2)cc1)C(N)=O.Cl [Compound G]         mg/kg            310
1  CC(=Cc1ccc(Oc2cccnc2)cc1)C(=O)O.Cl [Compound D]         mg/kg            350
2  CC(=Cc1ccc(Cc2cccnc2)cc1)C(=O)O.Cl [Compound C, reference compound]         mg/kg            220
3  CC(=Cc1ccc(Oc2cccnc2)cc1)C(=O)NC1CCCCC1.Cl [Compound E]         mg/kg            210

---

The entries below are paired with their reported IC50.
Tested on: thromboxane A2 synthesis (thromboxane A2 synthetase)
procedure_details: Inhibition of Thromboxane A2 Synthesis (collagen-stimulated rabbit platelet-rich plasma, thromboxane B2 by radioimmunoassay)
Format: cell-based
recorded_conditions: Oryctolagus cuniculus, 5 min, rabbit PRP, 6×10^8 platelets/ml, collagen 13 ug/ml, 37° C., 5 minutes, read-out: IC50 on Thromboxane A2 Synthesis
Where a name gives a salt, the structure may show the parent alone.
measured_endpoint: IC50

>>> df
                                   compound  measured_endpoint   result
0  CC(=Cc1ccc(Cc2cccnc2)cc1)C(=O)O.Cl [Compound C, hydrochloride, reference compound]               IC50   220 nM
1  CC(=Cc1ccc(Oc2cccnc2)cc1)C(=O)NC1CCCCC1.Cl [Compound E, hydrochloride]               IC50  5900 nM
2  CC(=Cc1ccc(Oc2cccnc2)cc1)C(=O)O.Cl [Compound D, hydrochloride]               IC50  1000 nM
3  CC(=Cc1ccc(Oc2cccnc2)cc1)C(N)=O.Cl [Compound G, hydrochloride]               IC50   560 nM
4  CC(=Cc1ccc(Sc2ccncc2)cc1)C(=O)O [Compound F, hydrochloride]               IC50   310 nM
